assay target: CYP2A6 (Homo sapiens)
Sequence (P11509 whole entry): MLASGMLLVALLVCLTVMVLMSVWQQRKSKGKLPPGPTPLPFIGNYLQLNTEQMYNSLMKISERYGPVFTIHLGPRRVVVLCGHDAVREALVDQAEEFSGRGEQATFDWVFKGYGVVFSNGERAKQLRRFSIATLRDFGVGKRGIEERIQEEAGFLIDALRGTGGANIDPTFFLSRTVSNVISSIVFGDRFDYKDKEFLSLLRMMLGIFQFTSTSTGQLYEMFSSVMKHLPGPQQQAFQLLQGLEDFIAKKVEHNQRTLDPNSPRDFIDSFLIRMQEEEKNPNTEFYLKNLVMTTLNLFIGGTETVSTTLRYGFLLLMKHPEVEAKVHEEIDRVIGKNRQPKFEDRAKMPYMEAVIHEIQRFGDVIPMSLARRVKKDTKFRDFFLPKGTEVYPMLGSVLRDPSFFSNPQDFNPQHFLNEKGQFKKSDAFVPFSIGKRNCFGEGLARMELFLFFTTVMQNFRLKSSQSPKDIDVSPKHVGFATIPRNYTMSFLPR
quantity kind: IC50 (µM)

                    given_smiles           assay_target  quantity_kind  obs_value
0  CC(C)=CCC/C(C)=C/CC/C(C)=C/CO  CYP2A6 (Homo sapiens)           IC50       85.9

###

Tested on: CYP2B/3A (CYP2B1, BROD activity)
test: CYP2B/3A (BROD activity, benzyloxyresorufin O-debenzylation) in rat liver microsomes
Assay type: in vitro ADME
measurement setup: probe benzyloxyresorufin (O-debenzylation), 0.5-5.0 µM; rat liver microsomes, BROD activity
quantity kind: Ki (µM)

>>> df
                                   compound  obs_value
0  C=CC(C)(O)CC/C=C(\C)CCC=C(C)C (stereo not drawn) [TNER, trans-nerolidol]       0.55

###

Tested on: CYP3A4/5
test: CYP3A4/5 midazolam 1′-hydroxylation in human liver microsomes (HPLC)
Type: in vitro ADME
measurement setup: substrate midazolam, n = 2
pIC50: −log10 of the molar value.
quantity kind: pIC50

                                   molecule  obs_value
0  C=CC(C)(O)CC/C=C(/C)CCC=C(C)C (stereo not drawn) [CNER, cis-nerolidol]       4.18

###

System: CYP3A4/5
test: CYP3A4/5 midazolam 1′-hydroxylation in human liver microsomes (HPLC)
Type: in vitro ADME
measurement setup: human, liver microsomes, probe midazolam, substrate midazolam, n = 2
pIC50: −log10 of the molar value.
quantity kind: pIC50

In [3]: df
Out[3]:
                                   compound  quantity_kind  obs_value
0  C=CC(C)(O)CC/C=C(/C)CCC=C(C)C (stereo not drawn) [CNER, cis-nerolidol]          pIC50       4.18

###

assay target: CYP1A2 (Rattus norvegicus)
Sequence (P04799 whole entry): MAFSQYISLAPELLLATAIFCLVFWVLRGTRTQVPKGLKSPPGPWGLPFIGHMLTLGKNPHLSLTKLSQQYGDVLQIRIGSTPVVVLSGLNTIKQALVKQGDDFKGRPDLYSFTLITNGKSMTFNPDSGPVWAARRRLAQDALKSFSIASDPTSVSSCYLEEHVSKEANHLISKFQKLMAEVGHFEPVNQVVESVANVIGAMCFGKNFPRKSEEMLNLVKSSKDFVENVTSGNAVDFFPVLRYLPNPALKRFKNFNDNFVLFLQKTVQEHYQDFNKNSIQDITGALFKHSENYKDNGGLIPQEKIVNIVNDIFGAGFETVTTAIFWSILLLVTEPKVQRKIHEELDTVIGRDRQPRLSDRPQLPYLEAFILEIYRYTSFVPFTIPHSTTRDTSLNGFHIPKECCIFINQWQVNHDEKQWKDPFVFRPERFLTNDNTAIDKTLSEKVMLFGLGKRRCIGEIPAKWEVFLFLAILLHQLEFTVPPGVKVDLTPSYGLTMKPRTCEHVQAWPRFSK
pKi: −log10 of the molar value.
quantity kind: pKi

>>> print(df.to_string())
                                   compound                assay_target  quantity_kind  obs_value
0  C=CC(C)(O)CC/C=C(\C)CCC=C(C)C (stereo not drawn) [TNER, trans-nerolidol]  CYP1A2 (Rattus norvegicus)            pKi       5.33

###

assay target: CYP1A2 (Homo sapiens, UniProt P05177)
Sequence (P05177 whole entry): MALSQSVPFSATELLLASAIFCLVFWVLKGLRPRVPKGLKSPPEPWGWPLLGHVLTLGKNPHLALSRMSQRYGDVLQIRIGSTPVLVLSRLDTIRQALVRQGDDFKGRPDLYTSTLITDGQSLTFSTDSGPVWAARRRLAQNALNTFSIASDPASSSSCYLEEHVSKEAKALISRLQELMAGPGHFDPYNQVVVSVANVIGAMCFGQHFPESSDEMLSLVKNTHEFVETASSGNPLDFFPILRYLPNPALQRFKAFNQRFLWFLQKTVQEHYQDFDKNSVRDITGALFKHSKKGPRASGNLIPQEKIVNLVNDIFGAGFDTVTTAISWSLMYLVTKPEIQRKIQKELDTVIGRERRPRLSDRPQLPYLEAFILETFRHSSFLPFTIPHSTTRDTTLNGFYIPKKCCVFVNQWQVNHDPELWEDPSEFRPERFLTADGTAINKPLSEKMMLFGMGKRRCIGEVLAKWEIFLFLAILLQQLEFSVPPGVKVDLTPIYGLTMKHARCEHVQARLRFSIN
quantity kind: Ki (nM)

>>> df
                                   compound                           assay_target  obs_value
0  C=CC(C)(O)CC/C=C(\C)CCC=C(C)C (stereo not drawn) [TNER, trans-nerolidol]  CYP1A2 (Homo sapiens, UniProt P05177)        920

###

assay target: CYP1A2 (Homo sapiens)
Construct: Frozen liver (both rat and human) was thawed; from tissue; host or cells: human liver microsomal fraction
test: CYP1A2 (EROD activity, 7-ethoxyresorufin O-deethylation) in human liver microsomes
Format: in vitro ADME
measurement setup: liver microsomes, probe 7-ethoxyresorufin; human, 5 µM inhibitor
Method: Enzyme activities were assayed in human and rat liver cytosolic and microsomal fractions. The enzyme assays (each performed in 4–8 replicates) were repeated three times (HPLC measurement of CYP activities was repeated only twice, Table 3). […] Enzyme activities of individual CYP forms were measured according to established protocols. […] Sesquiterpenes CNER, TNER and FAR, non-volatile liquids, were pipetted, and proper concentration was calculated according to density. […]
Below is a list of entries, each paired with its recorded inhibition at 5 µM value.
quantity kind: inhibition at 5 µM (%)

>>> df
                                   compound  readout_unit  obs_value
0  C=CC(C)(O)CC/C=C(/C)CCC=C(C)C (stereo not drawn) [CNER, cis-nerolidol]             %         50
1  O=c1cc(-c2ccccc2)oc2c1ccc1ccccc12 [ANF, α-naphthoflavone, reference compound]             %         92
2  C=CC(C)(O)CC/C=C(\C)CCC=C(C)C (stereo not drawn) [TNER, trans-nerolidol]             %         38
3             CC(C)=CCC/C(C)=C/CC/C(C)=C/CO             %         77
